fraction ligated reference
B1: F1*; the commonest letter at each place (parent)
chain: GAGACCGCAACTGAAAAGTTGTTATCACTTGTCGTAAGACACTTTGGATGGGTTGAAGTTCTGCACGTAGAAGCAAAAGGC

- Variants of: B1
- protocolNotes: fraction ligated after 30 min (ligated reads / total reads); higher = more ligase activity
- measurementContext: with F1*sub RNA substrate (template-directed ligation), 42 °C

[
  {
    "variantDescription": "T30A G46T",
    "fraction ligated": 0.805
  },
  {
    "variantDescription": "A36T C40G",
    "fraction ligated": 0.824
  },
  {
    "variantDescription": "T32A G46T",
    "fraction ligated": 0.787
  },
  {
    "variantDescription": "T43A",
    "fraction ligated": 0.855
  },
  {
    "variantDescription": "T23G A24C A27G C28A C42G G47A",
    "fraction ligated": 0.812
  },
  {
    "variantDescription": "T44A G47C",
    "fraction ligated": 0.117
  },
  {
    "variantDescription": "T23G A48C",
    "fraction ligated": 0.74
  },
  {
    "variantDescription": "C33A A56T",
    "fraction ligated": 0.837
  },
  {
    "variantDescription": "C33G T43A",
    "fraction ligated": 0.814
  },
  {
    "variantDescription": "T23C T43C",
    "fraction ligated": 0.759
  },
  {
    "variantDescription": "T23A G46T",
    "fraction ligated": 0.479
  },
  {
    "variantDescription": "T29C G47T",
    "fraction ligated": 0.508
  },
  {
    "variantDescription": "A41G A56G",
    "fraction ligated": 0.764
  },
  {
    "variantDescription": "A27G C33A",
    "fraction ligated": 0.8
  },
  {
    "variantDescription": "A27C G34C",
    "fraction ligated": 0.808
  },
  {
    "variantDescription": "T30A G55A",
    "fraction ligated": 0.816
  },
  {
    "variantDescription": "A56C A57T",
    "fraction ligated": 0.77
  },
  {
    "variantDescription": "G34T T45G",
    "fraction ligated": 0.385
  },
  {
    "variantDescription": "T29C T45A",
    "fraction ligated": 0.554
  },
  {
    "variantDescription": "C42G G46T",
    "fraction ligated": 0.793
  },
  {
    "variantDescription": "T45C A48T",
    "fraction ligated": 0.00623
  },
  {
    "variantDescription": "T45G G50A",
    "fraction ligated": 0.0135
  }
]
